Reference for the values: ChEMBL document CHEMBL4725353

Assay: in vitro
Settings: mouse, liver microsomes
Description: Intrinsic clearance in mouse liver microsomes preincubated for 10 mins followed by NADPH regenerating system addition and measured up to 30 mins by LC/MS-MS analysis
Value Type: CLint scaled at 0.5 h (mL/min/kg)

CCNc1cc(F)cc2c1[nH]c1ncc(-c3cnc(C(C)(C)O)nc3)c(-n3ccc(C(F)(F)F)n3)c12 58.7
CCNc1cc(F)cc2c1[nH]c1ncc(-c3cnc(N4CCNCC4)nc3)c(-n3ccc(C(F)(F)F)n3)c12 61.4
CCNc1cc(F)cc2c1[nH]c1ncc(-c3cnc(OC)nc3)c(-n3nc(C(F)(F)F)c4c3CNC4)c12 77.4
CCNc1cc(F)cc2c1[nH]c1ncc(-c3cncc(C#N)c3)c(-n3nc(C(F)(F)F)c4c3CNC4)c12 73.2

====

Assay: physchem
Description: Ionization constant (acid), pKa of the compound by photometric titration assay
Value Type: pKa

(a) CCNc1cc(F)cc2c1[nH]c1ncc(-c3cnc(NC4CCNC4)nc3)c(-n3ccc(C(F)(F)F)n3)c12 (stereo not given)
(b) CCNc1cc(F)cc2c1[nH]c1ncc(-c3cncc(C#N)c3)c(-n3nc(C(F)(F)F)c4c3CNC4)c12
Between these two entries, a and b , state which has the higher pKa. Let me know the label of the one you choose.
a

====

Assay: physchem
Value Type: pKa

CCNc1cc(F)cc2c1[nH]c1ncc(-c3cnc(OC4CNC4)nc3)c(-n3ccc(C(F)(F)F)n3)c12 8.62
CCNc1cc(F)cc2c1[nH]c1ncc(-c3cnc(N4CCNCC4)nc3)c(-n3ccc(C(F)(F)F)n3)c12 8.6
CCNc1cc(F)cc2c1[nH]c1ncc(-c3cnc(NC4CNC4)nc3)c(-n3ccc(C(F)(F)F)n3)c12 9.35
